Cited source: PubChem BioAssay AID623903

assay.name: antifungal activity against respiring C. glabrata – glycerol medium, OD600, powder samples, set 2, dose response (AID 623903)
cond: Candida glabrata growth in glycerol, OD600, 48 h; at 6 µM (top of the series)
endpoint: growth change, negative = inhibition (%)

* CCCCN1C(=O)N(c2ccc(C)cc2)C2(CCCCC2)C1=O | -2.19
* CCOC(=O)N1C(=O)N(c2ccc(C)cc2)C2(CCCCC2)C1=O | -38.8
* Cc1ccc(N2C(=O)NC(=O)C23CCCCC3)cc1 | 44.5
* O=C1NC(=S)NC12CCCCC2 | 10.1
* Cc1ccc(N2C(=S)NC(=O)C2(C)C)cc1 | -2.42
* Cc1ccc(N2C(=S)NC(=O)C23CCCCC3)cc1 | -3.05
* Cc1ccc(N2CC(=O)NC2=S)cc1 | 3.32
* CCOC(=O)N1C(=O)C2(CCCCC2)NC1=S | -2.7
* Cc1ccc(N2C(=S)N(C(=O)Oc3ccccc3)C(=O)C23CCCCC3)cc1 | -4.17
* Cc1ccc(N2C(=S)NC(=O)C23CCCC3)cc1 | -31.4
* Cc1ccc(N2C(=S)N(S(C)(=O)=O)C(=O)C23CCCCC3)cc1 | 1.2
* Cc1ccc(N2C(=S)NC(=O)C23CCC3)cc1 | 3.27
* Cc1ccc(N2C(=O)C(=O)NC2=S)cc1 | 19.6
* Cc1ccc(N2C(=O)C3(CCCCC3)NC2=S)cc1 | 5.63
* Cc1ccc(N2C(=S)N(C)C(=O)C23CCCCC3)cc1 | -20.3
* O=C1NC(=S)N(Cc2ccccc2)C12CCCCC2 | -0.552
* Cc1ccc(N2C(=O)N(C)C(=O)C23CCCCC3)cc1 | 24.2
* Cc1ccc(N2CC(=O)NC2=O)cc1 | 28.9
* CC(C)N1C(=S)NC(=O)C12CCCCC2 | 5.61
* CCOC(=O)N1C(=O)C(C)(C)N(c2ccc(C)cc2)C1=S | -13.4
* CCOC(=O)N1C(=S)NC(=O)C12CCCCC2 | 11.1
* CCOC(=O)N1C(=S)N(c2ccc(C)cc2)C(=O)C12CCCCC2 | 14.3
* O=C1NC(=S)N(c2ccc(F)cc2)C12CCCCC2 | -17.4
* O=C1NC(=S)N(c2ccccc2)C12CCCCC2 | 21.1
